experiment notes: Clearance in mouse at 5 mg/kg, po or 1 mg/kg, iv
Format: ADME, organism-based
condition details: in vivo
endpoint label: clearance (L/h/kg)

1: Cc1cc(-c2n[nH]c3ccc(C(=O)NC(C)c4cccc(Cl)c4)cc23)cc(C)n1 (configuration not stated)
2: Cc1cc(-c2n[nH]c3ccc(C(=O)NC(C)c4c(Cl)cncc4Cl)cc23)ccn1 (configuration not stated)
Between the entries labelled 1 and 2 , which has a larger clearance value on record? Respond with the label that goes with your answer.
2

====

study system: Mitogen-activated protein kinase 3 (Homo sapiens)
Sequence (P27361 whole entry): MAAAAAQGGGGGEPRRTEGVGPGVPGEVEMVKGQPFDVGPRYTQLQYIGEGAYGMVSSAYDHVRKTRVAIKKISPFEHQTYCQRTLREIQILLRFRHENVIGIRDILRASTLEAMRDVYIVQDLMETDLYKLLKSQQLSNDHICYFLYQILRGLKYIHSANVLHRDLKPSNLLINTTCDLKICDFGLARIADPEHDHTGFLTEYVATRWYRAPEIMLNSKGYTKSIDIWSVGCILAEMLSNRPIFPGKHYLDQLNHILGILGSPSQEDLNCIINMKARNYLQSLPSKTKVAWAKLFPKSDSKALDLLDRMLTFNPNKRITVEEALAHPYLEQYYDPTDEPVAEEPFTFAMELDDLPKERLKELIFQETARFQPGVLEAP
experiment notes: Inhibition of human recombinant GST-tagged ERK1 expressed in Escherichia coli using ser/thr 3 Peptide as substrate preincubated for 1 hr measured after 1 hr by Z-LYTE assay
pIC50: −log10 of the molar value.
endpoint label: pIC50

a: O=C(NCc1c(Cl)cncc1Cl)c1ccc2[nH]nc(-c3ccncc3)c2c1
b: CC(NC(=O)c1ccc2[nH]nc(-c3cc(F)c(O)c(F)c3)c2c1)c1cccc(Cl)c1 (stereo not drawn)
Pick one: a or b . Which one has the lower reported pIC50? Answer with the label corresponding to your selection.
a
